- assayed-target: UniProtKB Q9Y6Q9
- Sequence (Q9Y6Q9 whole entry, looked up): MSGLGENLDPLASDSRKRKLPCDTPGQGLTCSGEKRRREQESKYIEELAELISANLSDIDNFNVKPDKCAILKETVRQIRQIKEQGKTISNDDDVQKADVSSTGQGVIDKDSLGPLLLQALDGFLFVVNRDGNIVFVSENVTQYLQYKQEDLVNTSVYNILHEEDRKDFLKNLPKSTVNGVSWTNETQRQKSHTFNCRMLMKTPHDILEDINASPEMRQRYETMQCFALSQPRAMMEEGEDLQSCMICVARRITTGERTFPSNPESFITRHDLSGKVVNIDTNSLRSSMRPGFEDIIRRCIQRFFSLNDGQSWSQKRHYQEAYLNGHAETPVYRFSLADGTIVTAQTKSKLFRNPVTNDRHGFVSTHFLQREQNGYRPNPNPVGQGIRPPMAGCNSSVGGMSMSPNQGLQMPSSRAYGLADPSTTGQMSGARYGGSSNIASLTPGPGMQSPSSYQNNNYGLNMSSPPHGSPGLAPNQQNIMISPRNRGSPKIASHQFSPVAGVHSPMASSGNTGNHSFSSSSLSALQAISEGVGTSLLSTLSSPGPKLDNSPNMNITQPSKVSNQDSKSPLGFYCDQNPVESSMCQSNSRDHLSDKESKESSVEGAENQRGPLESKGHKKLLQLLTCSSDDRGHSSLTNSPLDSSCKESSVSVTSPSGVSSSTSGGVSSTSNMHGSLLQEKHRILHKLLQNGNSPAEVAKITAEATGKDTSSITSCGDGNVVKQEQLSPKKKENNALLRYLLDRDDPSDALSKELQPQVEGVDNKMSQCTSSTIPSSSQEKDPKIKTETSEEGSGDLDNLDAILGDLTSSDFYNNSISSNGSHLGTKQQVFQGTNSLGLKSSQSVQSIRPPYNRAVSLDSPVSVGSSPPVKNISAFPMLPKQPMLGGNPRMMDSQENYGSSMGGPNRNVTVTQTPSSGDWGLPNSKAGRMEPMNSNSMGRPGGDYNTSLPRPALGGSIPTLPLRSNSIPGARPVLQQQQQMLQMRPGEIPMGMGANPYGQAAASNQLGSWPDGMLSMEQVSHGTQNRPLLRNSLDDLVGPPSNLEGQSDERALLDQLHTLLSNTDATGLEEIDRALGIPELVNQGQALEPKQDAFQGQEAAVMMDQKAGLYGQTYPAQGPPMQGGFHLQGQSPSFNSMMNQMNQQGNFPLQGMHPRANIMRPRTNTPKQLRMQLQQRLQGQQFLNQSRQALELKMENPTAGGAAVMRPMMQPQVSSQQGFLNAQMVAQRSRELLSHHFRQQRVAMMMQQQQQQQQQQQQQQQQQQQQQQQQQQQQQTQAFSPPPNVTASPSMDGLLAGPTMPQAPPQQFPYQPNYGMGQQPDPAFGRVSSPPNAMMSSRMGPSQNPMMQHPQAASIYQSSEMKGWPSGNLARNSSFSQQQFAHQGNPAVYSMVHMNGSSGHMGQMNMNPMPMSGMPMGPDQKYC
- assay-details: NCOA3 reporter inhibition potency – cell-based, luminescence, dose response (AID 602166);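 also: potency for reduction of SRC3 reporter signal so compounds are inhibitors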
- measurement-context: SRC3 luciferase reporter cell assay
The source made the active and inactive calls. No rule for the calls is given here.
Possible outcomes: active, inactive

>>> group_label("O=C(CC1CS(=O)(=O)CC1CC(=O)Nc1ccc2c(c1)OCCO2)Nc1ccc2c(c1)OCCO2 (centres undefined)")
"inactive"
>>> group_label("C=CCOc1ccc(/C=C2\\SC(=S)N(CCC(=O)O)C2=O)cc1")
"inactive"
>>> group_label("O=C(CCCc1nc(-c2ccccc2Cl)no1)NC1CCCC1")
"active"
>>> group_label("CCOc1ccc(CC(=O)Nc2ccc(NC(=O)c3ccco3)cc2)cc1OCC")
"active"
>>> group_label("Nc1ncccc1C(=O)OCC(=O)N1CCN(S(=O)(=O)c2ccc(Cl)cc2)CC1")
"active"
>>> group_label("CN1C(=O)C2(C(C#N)=C(N)N(c3cc(Cl)cc(Cl)c3)C3=C2C(=O)CCC3)c2ccccc21 (centres undefined)")
"active"
>>> group_label("O=C(N/N=C\\c1ccc([N+](=O)[O-])s1)c1cncc(Br)c1")
"active"
>>> group_label("Cc1cccc(NC(=O)c2cc(Cl)ccc2[N+](=O)[O-])c1")
"active"
>>> group_label("Cc1cc2nccc(-c3ccncc3)n2n1")
"inactive"
>>> group_label("COc1ccc2[nH]c(=O)c(CN(CCN3CCCC3)C(=O)Nc3ccccc3Cl)cc2c1")
"inactive"
>>> group_label("CN1C(=O)C2(C(C#N)=C(N)N(c3cc(Cl)cc(Cl)c3)C3=C2C(=O)CC(C)(C)C3)c2ccccc21 (centres undefined)")
"active"
>>> group_label("COC(CN(C(=O)CCl)C(C(=O)NC1CCCCC1)c1ccccc1C)OC (centres undefined)")
"active"
>>> group_label("Cc1nc(N2CCC(C(N)=O)CC2)c2c(-c3cccs3)csc2n1")
"active"
>>> group_label("CC(C)(C)n1ncc2c(=O)n(CC(=O)OCc3ccccc3)cnc21")
"inactive"
>>> group_label("Cc1ccc(OCC(=O)c2cc(C)n(-c3ccccc3)c2C)c([N+](=O)[O-])n1")
"inactive"
>>> group_label("Cc1ccc2nc(-c3ccncc3)c(NC3CCCC3)n2c1")
"inactive"
>>> group_label("O=C(NCCCn1ccnc1)c1ccc(N2CCCCCC2)c([N+](=O)[O-])c1")
"inactive"
>>> group_label("CC(=O)c1ccc(Nc2c3c(nc4ccccc24)CCCC3)cc1")
"inactive"
>>> group_label("O=C(NCCc1ccccc1)c1ccc2c(c1)OCCO2")
"active"
>>> group_label("Cc1ccc(-n2c(Cl)c(Cl)nc(Cl)c2=O)cc1")
"inactive"
>>> group_label("Cc1ccc(C(=O)Nc2cnc3ccccc3c2)cc1")
"inactive"
>>> group_label("CC(C)(C)C(=O)Nc1ccc(N=Nc2ccccc2)cc1")
"inactive"
>>> group_label("O=c1[nH]c2ccccc2n1C1CCN(C(c2cccc3ccccc23)c2nnnn2-c2ccc3c(c2)OCCO3)CC1 (centres undefined)")
"inactive"
>>> group_label("CN(C)/C=C/C(=O)c1ccc2noc(-c3ccccc3)c2c1")
"active"
>>> group_label("NNC(=O)c1cc2ccccc2cc1O")
"active"
>>> group_label("COc1cccc(/C=N/Nc2ccc([N+](=O)[O-])cn2)c1O")
"inactive"
>>> group_label("CCn1nc(/C=C/c2ccccc2)nc2c(=O)n(C)c(=O)nc1-2")
"inactive"
>>> group_label("CCCC(=O)NC(c1ccc(Cl)cc1Cl)c1ccc2cccnc2c1O (centres undefined)")
"inactive"
>>> group_label("CN(C)S(=O)(=O)c1ccc(N2CCN(S(=O)(=O)c3ccc(F)cc3)CC2)c(Cl)c1")
"active"
>>> group_label("CCOC(=O)CC(=O)CSc1nccc(-c2cccnc2)n1")
"inactive"
>>> group_label("CCN(C(C)=O)c1cnc(C=NNC(N)=S)c2ccccc12")
"active"
>>> group_label("O=C(Nc1nc2ccccc2s1)C1c2ccccc2Oc2ccccc21")
"active"
>>> group_label("O=C(CCl)Nc1cccc(-c2cnc3ccccc3n2)c1")
"inactive"
>>> group_label("CS(=O)c1nc(-c2ccc(Br)cc2)cc(-c2ccccc2)c1C#N (centres undefined)")
"inactive"
>>> group_label("Cc1c(/C(O)=C2/C(=O)C(=O)N(Cc3cccnc3)C2c2ccccn2)cnn1-c1ccccc1 (centres undefined)")
"inactive"
>>> group_label("Cc1c(Cl)cccc1NC(=O)Nc1ccccc1C(N)=O")
"inactive"
>>> group_label("C=CCn1c(O)c(C(C)=NCc2cc(OC)cc(OC)c2)c(=O)[nH]c1=O")
"active"
>>> group_label("Cc1ccc(C(=O)O/N=C(\\N)c2ccccn2)c(Cl)c1")
"inactive"
>>> group_label("c1csc(Cc2nn3c(-c4ccncc4)nnc3s2)c1")
"active"
>>> group_label("O=c1[nH]c2ccccc2n1C1CCN(C(c2cc3ccccc3o2)c2nnnn2Cc2ccccc2)CC1 (centres undefined)")
"inactive"
>>> group_label("COc1cc(/C=N/NC(=Nc2ccc(C)cc2)c2nc3ccccc3s2)ccc1O")
"inactive"
>>> group_label("COc1ccccc1C(=O)N(CCC1CCCN1C)c1nc2ccccc2s1 (centres undefined)")
"inactive"
>>> group_label("C[C@@H](C(=O)Nc1ccc2c(c1)OCCO2)n1c(=O)[nH]c2ccccc2c1=O")
"inactive"
>>> group_label("c1ccc(-c2nnc(-c3ccccn3)nc2NC2CCCCC2)cc1")
"active"

# credit: PubChem BioAssay AID602166
